Parameter: survival. Scope: all listed entries.
# Test system: DeltatarO mutant
# experimental_protocol: S. aureus survival, RN4220 and DeltatarO strains – OD600, teichoic acid synthesis inhibitors, primary screen (AID 463173)
# condition_info: S. aureus RN4220 wild type/DeltatarO growth, OD600, 18 h, hits give low values, screened at 18.75 µg/mL (by protocol)
Among all 52,000 compounds or so, about 4,300 (8.3%) were called active. The entries come from a sample that favours actives as a whole.
The figure you give is taken to be in %; do not add the unit.

Known survival results, listed for orientation:
{"columns": ["smiles_notation", "measurement_name", "unit_annotation", "result_number"],
 "data": [
  ["CCOc1ccc2c(c1)sc1nc(=O)n(-c3ccc(Cl)c(Cl)c3)c(=O)n12", "survival", "%", 88],
  ["COc1cccc(C(=O)NCCc2csc(-c3cccc(F)c3)n2)c1OC", "survival", "%", 75]
]}

// query Please state recorded survival (tested on DeltatarO mutant) of CCOC(=O)c1[nH]c(C)c(CCC(=O)Nc2ccccc2C(=O)OC)c1C
// result 77

// query survival of O=c1nc2sc3ccccc3n2c(=O)n1-c1ccc(Cl)c(Cl)c1 on DeltatarO mutant?
// result 22

// query Given the entry Cc1ccc2c(c1)sc1nc(=O)n(-c3ccc(Cl)c(Cl)c3)c(=O)n12 , what survival was observed with DeltatarO mutant?
// result -6

---

Catalogue of compounds with associated survival
# Tested on: DeltatarO mutant
# experimental_protocol: S. aureus survival, RN4220 and DeltatarO strains – OD600, teichoic acid synthesis inhibitors, primary screen (AID 463173)
# condition_info: S. aureus RN4220 wild type/DeltatarO growth, OD600, 18 h, hits give low values, screened at 18.75 µg/mL (by protocol)
The campaign covered roughly 52,000 compounds. About 4,300 (8.3%) were called active. Many of the other results were omitted from the sample, so actives are more common in it than they were.
Respond with the bare value in %.

{"columns": ["compound", "survival [%]"],
 "data": [
  ["CC(C)NC(=O)C1CCN(S(C)(=O)=O)CC1", 93],
  ["Cc1ccc(S(=O)(=O)NCCSc2nnnn2-c2ccc(Cl)c(C(=O)O)c2)cc1", 138],
  ["Cc1c(NC(=O)Nc2ccc(Cl)c(C(F)(F)F)c2)c(=O)n(-c2ccccc2)n1C", 124],
  ["Cc1cccc(CNC(=O)CS(=O)(=O)c2cccc3nsnc23)c1", 78],
  ["CCCCOc1ccc(C(=O)NCCc2csc(-c3ccc(OC)cc3)n2)cc1", 108],
  ["COc1ccc(C)cc1S(=O)(=O)NCC(c1ccc(N(C)C)cc1)N1CCc2ccccc21 (stereo not given)", 55],
  ["COc1ccc(C)cc1NC(=O)CCc1c(C)nn(-c2ccc(N3CCCCC3)nn2)c1C", 78],
  ["CCC(=O)N1CCc2cc(Br)cc(S(=O)(=O)CCC(=O)N(C)c3cccc(C)c3)c21", 62]
]}

// query Recall the recorded survival for CC1CCCCN1CC(=O)N1CCCc2c1c(=O)oc1ccc(OCc3ccccc3)cc21 (stereo not given) with DeltatarO mutant and state it.
// result 77

// query Request: survival, test system DeltatarO mutant, entry O=C(CN1CCSc2ccccc21)N1CCN(c2ccc(F)cc2)CC1
// result 88

---

The reader will find reported survival values listed item by item below.
# Tested on: DeltatarO mutant
# experimental_protocol: S. aureus survival, RN4220 and DeltatarO strains – OD600, teichoic acid synthesis inhibitors, primary screen (AID 463173)
# condition_info: S. aureus RN4220 wild type/DeltatarO growth, OD600, 18 h, hits give low values, screened at 18.75 µg/mL (by protocol)
Among all 52,000 compounds or so, about 4,300 (8.3%) were called active. What follows is part of a selection rich in actives, with near analogues and random picks from the rest.
Report the figure in % without appending any unit label.

Worked examples follow.
{"columns": ["compound", "survival (%)"],
 "data": [
  ["COc1ccc(Cl)cc1NS(=O)(=O)c1ccc2c(c1)NC(=O)CC(=O)N2", 88],
  ["COc1ccc(-c2nc3scc(CCNS(=O)(=O)c4ccccc4F)n3n2)cc1", 90],
  ["CCCCNC(=O)c1nn(-c2ccc(CC)cc2)nc1CO", 41],
  ["Cc1nc2c3ccccc3nc(NNC(=O)CCC(=O)N3CCN(c4cccc(C(F)(F)F)c4)CC3)n2n1", 57],
  ["CC1CCC(NC(=O)c2ccc3c(c2)N(Cc2ccccc2)C(=O)c2ccccc2S3(=O)=O)CC1 (stereo not given)", 115]
]}

// query Field request: survival | item: O=c1c2sc3ccccc3c2n(Cc2cccc(C(F)(F)F)c2)c(=O)n1Cc1ccc(F)cc1
// result 114

// query Please give the measured survival for this compound: N#Cc1c(/N=C/c2cccnc2)sc2c1CCC2
// result 100

// query Entry COCCNC(=O)c1nn(-c2ccc(Cl)cc2)nc1CO : reported survival = ?
// result 91

// query Would you mind telling me what survival value was observed for O=C(C1CC1)N1CCc2cc(Br)cc(S(=O)(=O)Nc3ccc(F)c(F)c3)c21 ?
// result 110

// query Would you kindly share the measured survival for Cc1ccc(CNC(=O)c2cccc(Nc3nc4ccccc4n4nnnc34)c2)cc1 ?
// result 45

---

# Test system: DeltatarO mutant
# experimental_protocol: S. aureus survival, RN4220 and DeltatarO strains – OD600, teichoic acid synthesis inhibitors, primary screen (AID 463173)
# condition_info: S. aureus RN4220 wild type/DeltatarO growth, OD600, 18 h, hits give low values, screened at 18.75 µg/mL (by protocol)
Screen size: about 52,000 compounds; about 4,300 (8.3%) were called active. This is one part of a sample in which actives are shown more often than they occur.
measurement_name: survival (%)
Quick note: give the figure in %, leave out the unit.

These recorded examples may help you get a feel for the data.
{"columns": ["compound", "measurement_name", "unit_annotation", "result_number"],
 "data": [
  ["Cc1ccc(COC(=O)c2ccc(-c3nnn(Cc4ccc(C)cc4)n3)cc2)cc1", "survival", "%", 69],
  ["CCOc1cc(C(=O)OCc2cc(=O)n3nc(C4CC4)sc3n2)cc(OCC)c1OCC", "survival", "%", 79],
  ["COC(=O)C1=C(C)NC2=C(C(=O)c3ccccc32)C1c1cc2c(cc1Cl)OCO2 (stereo not given)", "survival", "%", 82],
  ["CCOC(=O)C1CCN(c2cc3c(cc2NC(=O)c2ccc(Cl)cc2)n(C)c(=O)n3C)CC1", "survival", "%", 93]
]}

// query Form entry - test system: DeltatarO mutant; read-out: survival; compound: Nc1nc(-c2ccco2)nn1C(=O)c1ccc(Cl)cc1Cl
// result 91

---

# Tested on: DeltatarO mutant
# experimental_protocol: S. aureus survival, RN4220 and DeltatarO strains – OD600, teichoic acid synthesis inhibitors, primary screen (AID 463173)
# condition_info: S. aureus RN4220 wild type/DeltatarO growth, OD600, 18 h, screened at 18.75 µg/mL (by protocol)
About 4,300 (8.3%) of roughly 52,000 compounds were called active. Rule as the data show it: active = survival mostly below about 52% (no sharp cut-off); inactive = mostly above about 56%. The entries come from a sample that favours actives as a whole.
# output must be one of active, inactive

Solved cases (5 shown):
{"columns": ["compound", "label_class"],
 "data": [
  ["COc1ccc(-c2cn3c(n2)sc2cc(C(=O)NCCCN4CCCCC4)ccc23)cc1", "inactive"],
  ["CCOc1ccc(-c2cn3c(n2)sc2cc(C(=O)NCCCN4CCCCC4)ccc23)cc1", "active"],
  ["O=C(Cn1nc(-c2ccccc2)c2cnc3ccccc3c21)Nc1ccccc1", "inactive"],
  ["CCOc1cccc(C2c3[nH]c4ccccc4c3CCN2C(=O)CCC2CCCC2)c1 (stereo not given)", "inactive"],
  ["O=C(Cn1nc(Cc2ccncc2)c2ccccc2c1=O)Nc1cccc(C(F)(F)F)c1", "inactive"]
]}

// query Tell me the recorded outcome of this test for COCCNC(=O)Cn1nc(-c2ccc(C)cc2)c2ccccc2c1=O .
// result active

// query Any idea what this test logged for CCOC(=O)c1c(S(=O)(=O)NCC(=O)N(C)Cc2ccccc2)c(C)n(C)c1C ?
// result inactive

// query Can you look up the reported call for COCCNC(=O)CCn1nc(-c2ccc(Cl)cc2)c2ccccc2c1=O for me?
// result inactive

// query Returns: the outcome recorded for COCCNC(=O)Cn1nc(C)c2c(C)n(-c3ccc(C)cc3)nc2c1=O in this assay.
// result inactive

// query Just curious, what result did O=C(Cn1nc(-c2ccc(Cl)cc2)c2ccccc2c1=O)NCCN1CCOCC1 get here?
// result inactive

---

# Tested on: DeltatarO mutant
# experimental_protocol: S. aureus survival, RN4220 and DeltatarO strains – OD600, teichoic acid synthesis inhibitors, primary screen (AID 463173)
# condition_info: S. aureus RN4220 wild type/DeltatarO growth, OD600, 18 h, screened at 18.75 µg/mL (by protocol)
Among all 52,000 compounds or so, about 4,300 (8.3%) were called active. Cut-off read from the data, not from the text of the source: active = survival mostly below about 52% (no sharp cut-off); inactive = mostly above about 56%. Many of the other results were omitted from the sample, so actives are more common in it than they were.
Respond using exactly one of the listed classes: yes for active, no for inactive

{"columns": ["compound", "label_class"],
 "data": [
  ["CCCCOc1ccc(C2C(=O)N(C3CCCCC3)CC(=O)N2C2CCCCC2)cc1 (stereo not given)", "no"],
  ["CC(NC(=O)Cn1c(=O)oc2cc(S(=O)(=O)N3CCCCCC3)ccc21)c1ccccc1 (stereo not given)", "no"],
  ["Cc1cc(C)cc(NC(=O)C2CCCN2S(=O)(=O)c2ccc3c(c2)CCCC(=O)N3)c1 (stereo not given)", "no"],
  ["CCC1CCCCN1C(=O)CSc1nc2c([nH]c3ccccc32)c(=O)n1-c1ccc(OC)cc1 (stereo not given)", "yes"],
  ["O=C(CSc1nc2c([nH]c3ccccc32)c(=O)n1-c1ccccc1)N1CCCCCC1", "no"]
]}

// query Please share the test call associated with CCC1CCCCN1C(=O)CSc1nc2c([nH]c3ccccc32)c(=O)n1-c1cccc(OC)c1 (stereo not given) .
// result no

// query Lab log entry: CC(SCc1ccccc1)C(=O)NCc1ccccn1 (stereo not given) — outcome as called in the assay?
// result no

// query Look up the recorded call for CCOC(=O)c1ccccc1NC(=O)Cn1ccn2nc(-c3ccc(OCC)cc3)cc2c1=O in this test.
// result no

// query Would you mind telling me which call this test gave Cc1ccc(S(=O)(=O)C(CNS(=O)(=O)c2cc(F)ccc2F)c2cccs2)cc1 (stereo not given) ?
// result no

// query Please state the recorded outcome for this compound: Cc1ccccc1-c1nnc(SCC(=O)N(C)C2CCCCC2)o1
// result no
